All values here come from ChEMBL document CHEMBL1130815.

System: Helicobacter pylori
assay-method-text: Compound was evaluated for antimicrobial activity against Helicobacter pylori
Format: functional
# key: entry, value: log10 MIC
On a log10 scale: recorded MIC, unit µg/mL.

# count of solved cases: 3
>>> print(df.to_string())
                               input_smiles  observed_measurement
0  CCOCC/N=C(\NCCOCC)Nc1nc(-c2ccc(CNC(C)=O)o2)cs1                  1.91
1  CSCC/N=C(\N)Nc1nc(-c2ccc(CNC(C)=O)o2)cs1                  0.22
2    C=CCNC(=N)Nc1nc(-c2ccc(CNC(C)=O)o2)cs1                  0.16

# query: log10 MIC of entry CCOCCCC/N=C(\N)Nc1nc(-c2ccc(CNC(C)=O)o2)cs1
0.04

# query: log10 MIC of entry CC(=O)NCc1ccc(-c2csc(NC(=N)NC3CCCCC3)n2)o1
0.03

# query: log10 MIC of entry CC(=O)NCc1ccc(-c2csc(NC(=N)NCCO)n2)o1
1.53

# query: log10 MIC of entry COCC/N=C(\N)Nc1nc(-c2ccc(CNC(C)=O)o2)cs1
0.16

# query: log10 MIC of entry Cc1ncc([N+](=O)[O-])n1CCO
0.73
